Reference for the values: the RNAGym collection of RNA variant scans (doi:10.7554/elife.90254)

B1: LINE1-full (parent)
chain: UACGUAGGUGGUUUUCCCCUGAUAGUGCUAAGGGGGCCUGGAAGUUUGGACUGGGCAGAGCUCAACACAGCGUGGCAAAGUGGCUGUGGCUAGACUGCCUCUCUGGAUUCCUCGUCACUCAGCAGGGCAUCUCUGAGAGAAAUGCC

variants of: B1; test: self-cleavage, relative activity (ratio to wild type); higher = more cleavage; in vitro, sequencing; the parent is a self-cleaving ribozyme
We begin with a simple list: items and their reported self-cleavage.
Answer as a number with no unit attached.

Example entries and their recorded answers appear below.
Request: // returns reported self-cleavage for input G40A G60U
Response: 0.02

Request: // returns reported self-cleavage for input C17A G70U
Response: 0.13

Request: // returns reported self-cleavage for input A77U G97A
Response: 0.07

Request: // returns reported self-cleavage for input U47C U109C
Response: 1.61

Request: // returns reported self-cleavage for input A22U A142G
Response: 1.31

Request: // returns reported self-cleavage for input C3A A124U
Response: 0.6

Next:
Request: // returns reported self-cleavage for input A77G A140G
Response: 1.7

Request: // returns reported self-cleavage for input A79G U119A
Response: 1.06

Request: // returns reported self-cleavage for input G53A U115A
Response: 1.31

Request: // returns reported self-cleavage for input `U26C`
Response: 1.24

Request: // returns reported self-cleavage for input U5G U119C
Response: 1.02

Request: // returns reported self-cleavage for input `G88U`
Response: 0.05

Request: // returns reported self-cleavage for input A64G A140U
Response: 0.3

Request: // returns reported self-cleavage for input U102C A138U
Response: 1.49
